- Experimental system: CRF1R
- Protocol text: cell-based or functional assay
Ends that are not written are not given here.
Catalogue of CRF1R EC50 values
Value type: CRF1R EC50

INSERT INTO measurements (binder, value_type, result) VALUES
  ('ZGPPISIDLPQYLLRKMIEIEKQEKEKQQAANNRLLLDTI (C-terminal amide) [SEQ ID NO 27]', 'CRF1R EC50', '325 nM'),
  ('IVLSLDVPIGLLQILLEQARQEAAREQATTNARILARV-NH2 [SEQ ID NO 123]', 'CRF1R EC50', '> 1000 nM'),
  ('ZGPPISIDLPFGLLRKMIEIEKQEKEKQQAANNRLLLDTI (C-terminal amide) [SEQ ID NO 68]', 'CRF1R EC50', '> 100 nM'),
  ('ZGPPISIDLPIKLLRKMIEIEKQEKEKQQAANNRLLLDTI (C-terminal amide) [SEQ ID NO 34]', 'CRF1R EC50', '> 1000 nM'),
  ('SEEPPISLDVPIGLLQEVLEMARAEQLAQQAHSNRKLMEII-NH2 [SEQ ID NO 162]', 'CRF1R EC50', '> 100 nM'),
  ('ZGPPISIDLPIWLLRKMIEIEKQEKEKQQAANNRLLLDTI (C-terminal amide) [SEQ ID NO 192]', 'CRF1R EC50', '562 nM');
